- assay_info: Oral bioavailability in C57BL/6 mouse at 3 mg/kg measured upto 24 hrs by LC-MS/MS analysis
- Format: ADME, organism-based
- test_settings: in vivo
observed_property: bioavailability (%)
// units = %; emit number, no label

Fill in the blank: the reported bioavailability of CS(=O)(=O)c1ccc(N[C@H](c2ccccn2)c2cccc(Cl)c2F)c(Nc2nccc(C(N)=O)n2)c1 is ____.
26

* * *

- assay_info: AUC (0 to 12 hrs) in C57BL/6 mouse at 100 mg/kg, po bid for 20 days
- Type: ADME, organism-based
- Design: dose 100 mg/kg, time < 12 hr, route oral
- test_settings: in vivo
observed_property: AUC at 12 h (µM·h)
Write the answer as a number in µM·h, unit excluded.

Looking for the measured AUC at 12 h of COc1nc(Nc2cc(S(C)(=O)=O)ccc2N[C@@H](c2cccc(Cl)c2F)c2ncccc2F)nc(OC)n1 , can you help?
47
